Data provenance: ChEMBL document CHEMBL1123645

# Tested on: Cavia porcellus
# measurement notes: Inhibition of LTD4 (leukotriene) induced bronchospasm in the guinea pig when administered perorally (50 mg/kg)
Lab note: anything with inhibition at or over 30% counts as y; the rest go in n.

Query: hey, is inhibition for this one >= 30%? `CCC(=O)N(C)C[C@H](O)c1cccc(OCc2nc3ccccc3n2C)c1`
Response: n

Query: hey, is inhibition for this one >= 30%? `CN(C)S(=O)(=O)N(C)C[C@H](O)c1cccc(OCc2ccc3ccccc3n2)c1`
Response: y

Query: hey, is inhibition for this one >= 30%? `CCN(CC)C(=O)N(C)C[C@H](O)c1cccc(OCc2nc3ccccc3n2C)c1`
Response: y

Query: hey, is inhibition for this one >= 30%? `CN(C)C(=O)N(C)C[C@H](O)c1cccc(OCc2ccc3ccccc3n2)c1`
Response: n

Query: hey, is inhibition for this one >= 30%? `CN1C[C@@H](c2cccc(OCc3ccc4ccccc4n3)c2)OC1=O`
Response: y

* * *

Hi there, I'd appreciate the recorded inhibition for every entry that follows.
# tested target: Cysteinyl leukotriene receptor (Homo sapiens) (UniProt Q9Y271+Q9NS75)
# Sequence (Q9NS75 whole entry, looked up): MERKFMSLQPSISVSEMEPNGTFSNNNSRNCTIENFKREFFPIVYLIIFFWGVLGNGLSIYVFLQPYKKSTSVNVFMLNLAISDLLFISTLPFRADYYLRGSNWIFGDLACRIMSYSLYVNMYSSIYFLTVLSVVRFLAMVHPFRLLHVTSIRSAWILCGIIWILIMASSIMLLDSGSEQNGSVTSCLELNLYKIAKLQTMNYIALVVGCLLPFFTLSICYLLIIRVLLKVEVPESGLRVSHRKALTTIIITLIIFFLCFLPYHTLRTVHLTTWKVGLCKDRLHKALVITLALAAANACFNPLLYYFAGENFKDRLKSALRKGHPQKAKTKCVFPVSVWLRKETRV
# Sequence (Q9Y271 whole entry, looked up): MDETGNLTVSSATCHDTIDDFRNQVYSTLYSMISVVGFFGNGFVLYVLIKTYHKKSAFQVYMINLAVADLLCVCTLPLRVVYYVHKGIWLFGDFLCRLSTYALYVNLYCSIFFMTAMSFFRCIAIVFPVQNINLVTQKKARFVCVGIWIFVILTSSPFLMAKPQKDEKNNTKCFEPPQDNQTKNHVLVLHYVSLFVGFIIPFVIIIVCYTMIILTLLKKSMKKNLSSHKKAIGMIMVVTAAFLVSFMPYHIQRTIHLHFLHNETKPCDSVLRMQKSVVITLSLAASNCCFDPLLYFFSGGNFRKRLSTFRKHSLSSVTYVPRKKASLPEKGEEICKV
# measurement notes: Inhibition of Ovalbumin (OA) induced bronchospasm in the guinea pig when administered intraduodenally (50 mg/kg)
# Format: functional, organism-based
# test conditions: Cavia porcellus; target entry is the homologue from another species
Please give a number only; it is taken to be in %.

The compound `CCC(=O)N(C)C[C@H](O)c1cccc(OCc2nc3ccccc3n2C)c1` showed inhibition equal to 66

The compound O=C1OC(c2cccc(OCc3ccc4ccccc4n3)c2)CN1Cc1ccc2ccccc2n1 (centres undefined) showed inhibition equal to 50

The compound `CCN(CC)C(=O)N(C)C[C@H](O)c1cccc(OCc2nc3ccccc3n2C)c1` showed inhibition equal to 84

The compound `CCN(CC)C(=O)N(C)C[C@H](O)c1cccc(OCc2ccc3ccccc3n2)c1` showed inhibition equal to 75

* * *

# Test system: Cavia porcellus
# measurement notes: Inhibition of Ovalbumin (OA) induced bronchospasm in the guinea pig when administered perorally (50 mg/kg)
# Type: functional
measurement kind: Inhibition (%)
Please give a number only; it is taken to be in %.

The compound CCNC(=O)N(C)CC(O)c1cccc(OCc2ccc3ccccc3n2)c1 (centres undefined) showed Inhibition equal to 46

The compound `CCN(CC)C(=O)N(C)C[C@H](O)c1cccc(OCc2ccc3ccccc3n2)c1` showed Inhibition equal to 25

The compound `CN1C[C@@H](c2cccc(OCc3ccc4ccccc4n3)c2)OC1=O` showed Inhibition equal to 56

The compound `CCN(CC)C(=O)N(C)C[C@H](O)c1cccc(OCc2nc3ccccc3s2)c1` showed Inhibition equal to 41

* * *

# tested target: Cysteinyl leukotriene receptor (Homo sapiens) (UniProt Q9Y271+Q9NS75)
# measurement notes: Inhibition of Ovalbumin (OA) induced bronchospasm in the guinea pig when administered intraduodenally (50 mg/kg)
# Format: functional, organism-based
# test conditions: Cavia porcellus; target entry is the homologue from another species
Hi there, I'd appreciate the recorded inhibition for every entry that follows.
Please give a number only; it is taken to be in %.

`CN1C[C@@H](c2cccc(OCc3ccc4ccccc4n3)c2)OC1=O` tested on Cysteinyl leukotriene receptor (Homo sapiens) (UniProt Q9Y271+Q9NS75) gave inhibition: 56

`CCNC(=O)O[C@@H](CN(C)C(=O)N(CC)CC)c1cccc(OCc2ccc3ccccc3n2)c1` tested on Cysteinyl leukotriene receptor (Homo sapiens) (UniProt Q9Y271+Q9NS75) gave inhibition: 80

`CCOC(=O)N(C)C[C@H](O)c1cccc(OCc2ccc3ccccc3n2)c1` tested on Cysteinyl leukotriene receptor (Homo sapiens) (UniProt Q9Y271+Q9NS75) gave inhibition: 20

`CCN(CC)C(=O)N(C)C[C@H](O)c1cccc(OCc2nc3ccccc3s2)c1` tested on Cysteinyl leukotriene receptor (Homo sapiens) (UniProt Q9Y271+Q9NS75) gave inhibition: 36

COC(=O)C1CCCN1C(=O)N(C)C[C@H](O)c1cccc(OCc2ccc3ccccc3n2)c1 (stereo not given in full) tested on Cysteinyl leukotriene receptor (Homo sapiens) (UniProt Q9Y271+Q9NS75) gave inhibition: 23

* * *

# Tested on: Cavia porcellus
# measurement notes: Inhibition of LTD4 (leukotriene) induced bronchospasm in the guinea pig when administered intraduodenally at 25 mg/kg
Measured inhibition determines class: group 1: < 20%; group 2: ≥ 20% and < 80%; group 3: ≥ 80%

Query: Category of CCOC(=O)CC1=NCC(c2cccc(OCc3ccc4ccccc4n3)c2)O1 (configuration not stated) , please.
Response: group 2

Query: Category of O=C1NCC(c2cccc(OCc3ccc4ccccc4n3)c2)O1 (configuration not stated) , please.
Response: group 2

Query: Category of CCOC(=O)CC(=O)NCC(O)c1cccc(OCc2ccc3ccccc3n2)c1 (configuration not stated) , please.
Response: group 2

Query: Category of c1ccc(C2=NCC(c3cccc(OCc4ccc5ccccc5n4)c3)O2)cc1 (configuration not stated) , please.
Response: group 1

Query: Category of O=C(NCC(O)c1cccc(OCc2ccc3ccccc3n2)c1)c1ccccc1 (configuration not stated) , please.
Response: group 1

Query: Category of CCOC(=O)NCC(O)c1cccc(OCc2ccc3ccccc3n2)c1 (configuration not stated) , please.
Response: group 2

Query: Category of O=S(=O)(NCC(O)c1cccc(OCc2ccc3ccccc3n2)c1)C(F)(F)F (configuration not stated) , please.
Response: group 3

Query: Category of `C#CCN(C)C[C@H](O)c1cccc(OCc2ccc3ccccc3n2)c1` , please.
Response: group 2

Query: Category of c1cc(OCc2ccc3ccccc3n2)cc(C2CN=C(c3ccncc3)O2)c1 (configuration not stated) , please.
Response: group 2

Query: Category of c1cncc(C2=NCC(c3cccc(OCc4ccc5ccccc5n4)c3)O2)c1 (configuration not stated) , please.
Response: group 3

* * *

# System: Cavia porcellus
# measurement notes: Inhibition of LTD4 (leukotriene) induced bronchospasm in the guinea pig when administered intraduodenally (50 mg/kg)
Hi there, I'd appreciate the recorded inhibition for every entry that follows.
Answer by giving the amount and then stating its unit.

The compound `CN(C[C@H](O)c1cccc(OCc2ccc3ccccc3n2)c1)C(=O)N(c1ccccc1)c1ccccc1` showed inhibition equal to 21%

The compound `CCN(CC)C(=O)N(C)C[C@H](O)c1cccc(OCc2nc3ccccc3n2C)c1` showed inhibition equal to 77%

The compound CCC1=NCC(c2cccc(OCc3ccc4ccccc4n3)c2)O1 (stereo unspecified) showed inhibition equal to 80%

The compound NCC(O)c1cccc(OCc2ccc3ccccc3n2)c1 (stereo unspecified) showed inhibition equal to 23%

The compound `CCN(CC)C(=O)N(CC)C[C@H](O)c1cccc(OCc2ccc3ccccc3n2)c1` showed inhibition equal to 34%

The compound `CCN(CC)C(=O)N(C)CC(=O)c1cccc(OCc2ccc3ccccc3n2)c1` showed inhibition equal to 26%

The compound CCNC(=O)N(C)CC(O)c1cccc(OCc2ccc3ccccc3n2)c1 (stereo unspecified) showed inhibition equal to 82%

The compound `CN1C[C@@H](c2cccc(OCc3ccc4ccccc4n3)c2)OC1=O` showed inhibition equal to 91%

The compound `CCC(=O)N(C)C[C@H](O)c1cccc(OCc2nc3ccccc3n2C)c1` showed inhibition equal to 51%

The compound `CN(C)S(=O)(=O)N(C)C[C@H](O)c1cccc(OCc2ccc3ccccc3n2)c1` showed inhibition equal to 56%

The compound `CN(C[C@H](O)c1cccc(OCc2ccc3ccccc3n2)c1)C(=O)c1ccncc1` showed inhibition equal to 31%

The compound c1cc(OCc2ccc3ccccc3n2)cc(C2CN=C(c3cccs3)O2)c1 (stereo unspecified) showed inhibition equal to 41%

The compound `CN(C)C(=O)N(C)C[C@H](O)c1cccc(OCc2ccc3ccccc3n2)c1` showed inhibition equal to 93%

The compound COC(=O)C1CCCN1C(=O)N(C)C[C@H](O)c1cccc(OCc2ccc3ccccc3n2)c1 (stereo partly specified) showed inhibition equal to 71%

The compound c1ccc(C2=NCC(c3cccc(OCc4ccc5ccccc5n4)c3)O2)nc1 (stereo unspecified) showed inhibition equal to 92%

The compound CN1CC(c2cccc(OCc3nc4ccccc4n3C)c2)OC1=O (stereo unspecified) showed inhibition equal to 65%

The compound O=C1OC(c2cccc(OCc3ccc4ccccc4n3)c2)CN1Cc1ccc2ccccc2n1 (stereo unspecified) showed inhibition equal to 31%

The compound `CCOC(=O)N(C)C[C@H](O)c1cccc(OCc2ccc3ccccc3n2)c1` showed inhibition equal to 71%

The compound `CN1C[C@H](c2cccc(OCc3ccc4ccccc4n3)c2)OC1=O` showed inhibition equal to 99%

The compound `CCNC(=O)O[C@@H](CN(C)C(=O)N(CC)CC)c1cccc(OCc2ccc3ccccc3n2)c1` showed inhibition equal to 54%

The compound `CCN(CC)C(=O)N(C)C[C@H](O)c1cccc(OCc2nc3ccccc3s2)c1` showed inhibition equal to 59%
